Value source: patent US11867696B2

// values below are reported pKd
# subjectOfTest: corresponding anti-peptide antibody
# measurementDescription: Dissociation constants (KD) between peptide and its corresponding antibody, ForteBio instrument
# Type: binding, rabbit
# Description: Goat anti-mouse and goat anti-rabbit antibodies were purchased from ImmunoReagents, Inc. (Raleigh, NC). Rabbit monoclonal anti-estrogen receptor (ER), anti-progesterone receptor (PR) and anti-HER2/neu receptor (HER2) antibodies were purchased from Epitomics, Inc. (Fremont, CA). Mouse anti-Ki67 was purchased from BD Biosciences, San Diego, CA Rabbit monoclonal anti-peptide antibodies against PEP1, PEP2, PEP3, PEP4, and PEP5 were obtained from AvantGen, Inc. (San Diego, CA). […]
Where no end group is shown, it is not given here. [ ]: non-standard residue; d: D form. The star is where a group is joined. AOA = aminooxyacetyl (N-terminus modified with aminooxyacetamide), NOCC(=O)*; pY = N[C@@H](Cc1ccc(OP(=O)(O)O)cc1)C(=O)O
Notebook: values listed as pKd are -log10 of the concentration (mol/L).

{"columns": ["substance", "pKd"],
 "data": [
  ["AOA-GLEPGQEYNVLLTAEK ({AOA}-GLEPGQEYNVLLTAEK) [PEP4]", 10.05],
  ["AOA-DATNVGDEGGFAPNILENK ({AOA}-DATNVGDEGGFAPNILENK) [PEP3]", 10.05],
  ["AOA-RPHFPQF-pY-SASGTA ({AOA}-RPHFPQF[pY]SASGTA) [PEP5]", 10.40],
  ["AOA-DITSDTSGDFR ({AOA}-DITSDTSGDFR) [PEP2]", 9.80]
]}

Here's the next entry for you.
Tell me pKd reported for AOA-LALQAQPVPDELVTK ({AOA}-LALQAQPVPDELVTK) [PEP1]
10.05
